Reported log10 of GI50 by item:
tested on: MDA-MB-231 cells; experiment: MDA-MB-231 proliferation assay; type: cell-based; conditions: Homo sapiens, 72 hours, YO-PRO-1 readout
endpoint.name: log10 of GI50 (log10 of the value in nM)

| molecule | assayed.system | log10 of GI50 |
| --- | --- | --- |
| CC1(C)/C(=N/OCC(N)=O)c2cc(O[C@H]3CC[C@H](N)CC3)ccc2-c2ncnc(N)c21 | MDA-MB-231 cells | 3.17 |
| CC1(C)/C(=N/OCC#N)c2cc(O[C@H]3CC[C@H](N)CC3)ccc2-c2ncnc(N)c21 | MDA-MB-231 cells | 2.84 |
| CCOCCO/N=C1\c2cc(O[C@H]3CC[C@@H](N)CC3)ccc2-c2ncnc(N)c2C1(C)C | MDA-MB-231 cells | 2.19 |
| CC1(C)/C(=N/OCc2ccccc2)c2cc(O[C@H]3CC[C@H](N)CC3)ccc2-c2ncnc(N)c21 | MDA-MB-231 cells | 3.29 |
| CO/N=C1\c2cc(O[C@H]3CC[C@H](N)CC3)ccc2-c2ncnc(N)c2C1(C)C | MDA-MB-231 cells | 2.61 |
| COCCO/N=C1\c2cc(N[C@H]3CC[C@H](N)CC3)ccc2-c2ncnc(N)c2C1(C)C | MDA-MB-231 cells | 3.02 |
| CC1(C)/C(=N/OC[C@@H]2CN(CCO)C(=O)O2)c2cc(I)ccc2-c2ncnc(N)c21 | MDA-MB-231 cells | 2.20 |
| CC1(C)/C(=N\O)c2cc(O[C@H]3CC[C@H](N)CC3)ccc2-c2ncnc(N)c21 | MDA-MB-231 cells | 2.67 |
| CCOC(=O)CCO/N=C1\c2cc(O[C@H]3CC[C@H](N)CC3)ccc2-c2ncnc(N)c2C1(C)C | MDA-MB-231 cells | 2.81 |
| CCO/N=C1\c2cc(O[C@H]3CC[C@H](N)CC3)ccc2-c2ncnc(N)c2C1(C)C | MDA-MB-231 cells | 2.87 |
| C=C(c1ccc2c(c1)/C(=N\OC)C(C)(C)c1c(N)ncnc1-2)[C@H]1CC[C@H](N)CC1 | MDA-MB-231 cells | 2.43 |
| CC1(C)/C(=N/OCCCC#N)c2cc(O[C@H]3CC[C@H](N)CC3)ccc2-c2ncnc(N)c21 | MDA-MB-231 cells | 2.43 |
| CC1(C)/C(=N/OCCc2ccccc2)c2cc(O[C@H]3CC[C@@H](N)CC3)ccc2-c2ncnc(N)c21 | MDA-MB-231 cells | 2.49 |

---

target: recombinant human CLK3 (Homo sapiens, UniProt P49761); experiment: CLK3 kinase assay (LANCE Ultra); conditions: 0.5 nM CLK3, 300 μM ATP, 3 hours at 30° C.
Sequence (P49761 whole entry): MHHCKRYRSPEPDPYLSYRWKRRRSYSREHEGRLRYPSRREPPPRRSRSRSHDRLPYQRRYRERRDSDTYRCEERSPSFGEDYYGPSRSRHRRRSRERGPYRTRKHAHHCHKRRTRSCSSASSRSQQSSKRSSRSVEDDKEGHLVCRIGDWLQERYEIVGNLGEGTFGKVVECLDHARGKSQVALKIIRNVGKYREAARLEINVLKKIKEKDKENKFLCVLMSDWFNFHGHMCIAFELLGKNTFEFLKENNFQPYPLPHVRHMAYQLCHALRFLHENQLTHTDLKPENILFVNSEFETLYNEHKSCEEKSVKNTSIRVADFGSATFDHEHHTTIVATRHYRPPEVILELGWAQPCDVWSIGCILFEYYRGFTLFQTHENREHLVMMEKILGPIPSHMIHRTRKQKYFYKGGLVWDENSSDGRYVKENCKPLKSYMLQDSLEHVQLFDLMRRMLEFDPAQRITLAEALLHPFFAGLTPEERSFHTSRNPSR
endpoint.name: IC50 (nM)

| molecule | endpoint.name | u | operator.symbol | measured |
| --- | --- | --- | --- | --- |
| CC1(C)/C(=N/OCCOCC(F)(F)F)c2cc(O[C@H]3CC[C@@H](N)CC3)ccc2-c2ncnc(N)c21 [Example 112] | IC50 | nM | = | 8.8 |
| CC1(C)/C(=N/O)c2cc(Br)ccc2-c2ncnc(N)c21 [Example 84] | IC50 | nM | = | 10.6 |
| CC1(C)/C(=N/OCCC#N)c2cc(O[C@H]3CC[C@H](N)CC3)ccc2-c2ncnc(N)c21 [Example 55] | IC50 | nM | = | 15.6 |
| COCCO/N=C1\c2cc(O[C@H]3CC[C@H](N)CC3)ccc2-c2ncnc(N)c2C12CCCC2 [Example 99] | IC50 | nM | = | 5.8 |
| CO/N=C1\c2cc(CC3CCNCC3)ccc2-c2ncnc(N)c2C1(C)C [Example 70] | IC50 | nM | = | 9.1 |
| CC(C)CO/N=C1\c2cc(O[C@H]3CC[C@H](N)CC3)ccc2-c2ncnc(N)c2C1(C)C [Example 30] | IC50 | nM | = | 93.9 |
| CO/N=C1/c2c(ccc(OC)c2N)-c2ncnc(N)c2C1(C)C [Example 49] | IC50 | nM | = | 14.4 |
| CO/N=C1\c2cc(C[C@H]3CC[C@@H](N)CC3)ccc2-c2ncnc(N)c2C1(C)C [Example 75] | IC50 | nM | = | 3.4 |
| COc1ccc2c(c1)/C(=N\OC[C@H]1CCN(C)C1)C(C)(C)c1c(N)ncnc1-2 [Example 71] | IC50 | nM | = | 173 |
| CN1C[C@@H](CO/N=C2\c3cc(Br)ccc3-c3ncnc(N)c3C2(C)C)OC1=O [Example 53] | IC50 | nM | < | 1.5 |
| COc1ccc2c(c1)/C(=N\OCCCC#N)C(C)(C)c1c(N)ncnc1-2 [Example 6] | IC50 | nM | = | 32.1 |
| CC1(C)/C(=N/OCc2ccccc2)c2cc(O[C@H]3CC[C@H](N)CC3)ccc2-c2ncnc(N)c21 [Example 3] | IC50 | nM | = | 200 |
| COCCO/N=C1\c2cc(O[C@H]3CC[C@@](C)(N)CC3)ccc2-c2ncnc(N)c2C1(C)C [Example 103] | IC50 | nM | = | 28.3 |
| COc1ccc2c(c1)/C(=N\OC[C@H]1CC(=O)N(C)C1)C(C)(C)c1c(N)ncnc1-2 [Example 76] | IC50 | nM | < | 41 |
| CC1(C)/C(=N/OCCCCF)c2cc(O[C@H]3CC[C@@H](N)CC3)ccc2-c2ncnc(N)c21 [Example 113] | IC50 | nM | = | 21.2 |
| COCCO/N=C1\c2cc(N[C@H]3CC[C@@H](N)CC3)ccc2-c2ncnc(N)c2C1(C)C [Example 96] | IC50 | nM | = | 43.6 |

---

Test system: phospho-SRSF6 levels in MDA-MB-468 cells
Assay: Inhibition of phospho-SRSF6 levels in MDA-MB-468 cells (Western blot)
Type: cell-based
Details: Homo sapiens, 100 nM, 2 hours, normalized by GAPDH, read-out: % Intensity of p-SRSF6 signal at 100 nM compared to DMSO control
Procedure: FIG. 1: FIG. 1 provides a representative Western blot showing reduction of phosphorylated-SRSF6 (P-SRSF6) in MDA-MB 468 cells by compounds of the invention. GAPDH was probed for by Western blotting to control for equal protein loading and for normalization of samples. The numbers below the blots show percent intensity of P-SRSF6 signal at 100 nM compared to DMSO control. Assessment of Inhibition of Phospho-SRSF6 Levels in MDA-MB-468 Cells […]
Grouping by measured activity at 0.1 µM is done with the following cut points: lower level = under 20%, middle level = from 20% up to 30%, upper level = 30% and over

| compound | assigned.category |
| --- | --- |
| CN1C[C@@H](CO/N=C2\c3cc(O[C@H]4CC[C@@H](N)CC4)ccc3-c3ncnc(N)c3C2(C)C)OC1=O [Example 88] | middle level |
| CO/N=C1\c2cc(OC)ccc2-c2ncnc(N)c2C1(C)C [Example 40] | upper level |
| CC(C)(C#N)CCO/N=C1\c2cc(O[C@H]3CC[C@@H](N)CC3)ccc2-c2ncnc(N)c2C1(C)C [Example 111] | lower level |
| N#CCCO/N=C1\c2cc(O[C@H]3CC[C@@H](N)CC3)ccc2-c2ncnc(N)c2C12CCCC2 [Example 101] | lower level |
| COCCN1C[C@@H](CO/N=C2\c3cc(Br)ccc3-c3ncnc(N)c3C2(C)C)OC1=O [Example 90] | middle level |
| COc1ccc2c(c1)/C(=N\OC[C@@H]1CNC(=O)O1)C(C)(C)c1c(N)ncnc1-2 [Example 13] | middle level |
| CO/N=C1\c2cc(CC3CCNCC3)ccc2-c2ncnc(N)c2C1(C)C [Example 70] | upper level |
| CC1(C)/C(=N/OCCO)c2cc(O[C@H]3CC[C@H](N)CC3)ccc2-c2ncnc(N)c21 [Example 19] | middle level |
| CC1(C)/C(=N/OC[C@@H]2CN(CCO)C(=O)O2)c2cc(I)ccc2-c2ncnc(N)c21 [Example 97] | middle level |
| CO/N=C1\c2cc(C[C@H]3CC[C@H](N)CC3)ccc2-c2ncnc(N)c2C1(C)C [Example 74] | middle level |
| COCCO/N=C1\c2cc(O[C@H]3CC[C@H](N)CC3)ccc2-c2ncnc(N)c2C1(C)C [Example 29] | lower level |
| COc1ccc2c(c1)/C(=N\OCCCC#N)C(C)(C)c1c(N)ncnc1-2 [Example 6] | upper level |
| CC1(C)/C(=N/OC[C@@H]2CNC(=O)O2)c2cc(I)ccc2-c2ncnc(N)c21 [Example 93] | lower level |
| C=C(c1ccc2c(c1)/C(=N\OC)C(C)(C)c1c(N)ncnc1-2)[C@H]1CC[C@H](N)CC1 [Example 4] | upper level |
| CO/N=C1\c2cc(O[C@H]3CC[C@H](N)CC3)ccc2-c2ncnc(N)c2C1(C)C [Example 1] | lower level |
| N#CCCO/N=C1\c2cc(O[C@H]3CC[C@H](N)CC3)ccc2-c2ncnc(N)c2C12CCCC2 [Example 102] | lower level |
| COCCO/N=C1\c2cc(O[C@H]3CC[C@H](N)CC3)ccc2-c2ncnc(N)c2C12CCCC2 [Example 99] | lower level |
| CC1(C)/C(=N/OCCC#N)c2cc(O[C@H]3CC[C@@H](N)CC3)ccc2-c2ncnc(N)c21 [Example 83] | lower level |
| CC1(C)/C(=N/OCCO)c2cc(O[C@H]3CC[C@@H](N)CC3)ccc2-c2ncnc(N)c21 [Example 87] | lower level |
| CC1(C)/C(=N/OCCCC#N)c2cc(O[C@H]3CC[C@H](N)CC3)ccc2-c2ncnc(N)c21 [Example 27] | middle level |
| COCCO/N=C1\c2cc(O[C@H]3CC[C@@H](N)CC3)ccc2-c2ncnc(N)c2C1(C)C [Example 82] | lower level |
| CCOCCO/N=C1\c2cc(O[C@H]3CC[C@@H](N)CC3)ccc2-c2ncnc(N)c2C1(C)C [Example 109] | middle level |
| CC(F)(F)CCO/N=C1\c2cc(O[C@H]3CC[C@@H](N)CC3)ccc2-c2ncnc(N)c2C1(C)C [Example 115] | lower level |
| CC1(C)/C(=N/OC[C@@H]2CN(CCO)C(=O)O2)c2cc(Br)ccc2-c2ncnc(N)c21 [Example 91] | lower level |
| CC1(C)/C(=N/OC[C@@H]2CNC(=O)O2)c2cc(O[C@H]3CC[C@H](N)CC3)ccc2-c2ncnc(N)c21 [Example 38] | upper level |
| C#CCO/N=C1\c2cc(O[C@H]3CC[C@H](N)CC3)ccc2-c2ncnc(N)c2C1(C)C [Example 21] | lower level |
| C[C@H](O)CO/N=C1\c2cc(O[C@H]3CC[C@H](N)CC3)ccc2-c2ncnc(N)c2C1(C)C [Example 79] | upper level |

Values were extracted from patent US12583825B2.
